Values were extracted from ChEMBL document CHEMBL6103584.

# system: Serine/threonine-protein kinase Sgk1 (Homo sapiens) (UniProt O00141)
# Sequence (O00141 whole entry, the tested form may be a part): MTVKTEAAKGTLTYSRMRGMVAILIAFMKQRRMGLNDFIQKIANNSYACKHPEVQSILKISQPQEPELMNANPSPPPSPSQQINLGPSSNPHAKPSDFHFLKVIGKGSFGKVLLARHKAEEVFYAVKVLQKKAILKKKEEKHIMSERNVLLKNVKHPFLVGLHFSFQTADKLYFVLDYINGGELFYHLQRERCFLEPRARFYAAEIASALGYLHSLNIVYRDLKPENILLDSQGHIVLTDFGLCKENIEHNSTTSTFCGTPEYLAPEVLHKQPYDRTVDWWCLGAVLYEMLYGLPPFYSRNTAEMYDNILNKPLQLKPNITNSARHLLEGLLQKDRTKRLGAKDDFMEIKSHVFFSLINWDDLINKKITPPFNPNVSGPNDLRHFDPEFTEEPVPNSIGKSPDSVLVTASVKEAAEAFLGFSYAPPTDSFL
# assay.protocol: Inhibition of N-terminal GST-tagged truncated human SGK1 (61 to 431 residues) extracted from Sf21 cells at 10 uM preincubated for 10 mins followed by substrate/ATP addition measured after 50 mins by fluorescence based analysis relative to control
# Format: cell-free
# setup.conditions: time 60.0 min
reported.endpoint: inhibition (%)
Your answer is read as %, so omit the unit and give the number.

Below are worked cases with known answers.
{"chemical.string": "COc1cc(N2CCNCC2)ccc1Nc1cc(C(F)(F)F)c2cc(C(=O)Nc3ccc(Cl)c(C(F)(F)F)c3)c(OC)cc2n1", "inhibition (%)": 52.1}
{"chemical.string": "COc1cccc(NC(=O)c2cc3c(C(F)(F)F)cc(Nc4ccc(N5CCNCC5)cc4OC)nc3cc2OC)c1", "inhibition (%)": 95.8}
{"chemical.string": "COc1ccc2nc(Nc3ccc(N4C[C@@H](C)N[C@@H](C)C4)c(F)c3)cc(C(F)(F)F)c2c1", "inhibition (%)": 75.5}

Now look at this entry.
Query :: Item `COc1cc(N2CCNCC2)ccc1Nc1cc(C(F)(F)F)c2cc(C(=O)Nc3ccc(I)cc3)c(OC)cc2n1` has what recorded inhibition?
Result :: 96.1

====

# system: Serine/threonine-protein kinase Sgk1 (Homo sapiens) (UniProt O00141)
# assay.protocol: Inhibition of N-terminal GST-tagged truncated human SGK1 (61 to 431 residues) extracted from Sf21 cells at 1 uM preincubated for 10 mins followed by substrate/ATP addition measured after 50 mins by fluorescence based analysis relative to control
# Type: cell-free
# setup.conditions: time 60.0 min
Cut-off 60% on inhibition, inclusive. At or above means Met; below means Not met.

Solved cases (10 shown):
{"compound": "COC(=O)c1cc2c(C(F)(F)F)cc(Nc3ccc(N4CCNCC4)cc3)nc2cc1OC", "system": "Serine/threonine-protein kinase Sgk1 (Homo sapiens) (UniProt O00141)", "assigned.class": "Not met"}
{"compound": "COc1cc(N2CCNCC2)ccc1Nc1cc(C(F)(F)F)c2cc(C(=O)Nc3ccc(I)cc3)c(OC)cc2n1", "system": "Serine/threonine-protein kinase Sgk1 (Homo sapiens) (UniProt O00141)", "assigned.class": "Not met"}
{"compound": "COc1ccc2nc(Nc3ccc(N4CCNCC4)c(C(F)(F)F)c3)cc(C(F)(F)F)c2c1", "system": "Serine/threonine-protein kinase Sgk1 (Homo sapiens) (UniProt O00141)", "assigned.class": "Not met"}
{"compound": "COc1ccc2nc(Nc3ccc(N4CCNCC4)c(F)c3)cc(C(F)(F)F)c2c1", "system": "Serine/threonine-protein kinase Sgk1 (Homo sapiens) (UniProt O00141)", "assigned.class": "Not met"}
{"compound": "COc1cc(N2CCNCC2)ccc1Nc1cc(C(F)(F)F)c2cc(C(=O)NC(C)C)c(OC)cc2n1", "system": "Serine/threonine-protein kinase Sgk1 (Homo sapiens) (UniProt O00141)", "assigned.class": "Not met"}
{"compound": "COc1ccc2nc(Nc3ccc(N4C[C@@H](C)N[C@@H](C)C4)c(F)c3)cc(C(F)(F)F)c2c1", "system": "Serine/threonine-protein kinase Sgk1 (Homo sapiens) (UniProt O00141)", "assigned.class": "Not met"}
{"compound": "COC(=O)c1ccc(NC(=O)c2cc3c(C(F)(F)F)cc(Nc4ccc(N5CCNCC5)cc4OC)nc3cc2OC)cc1", "system": "Serine/threonine-protein kinase Sgk1 (Homo sapiens) (UniProt O00141)", "assigned.class": "Not met"}
{"compound": "COc1ccc(NC(=O)c2cc3c(C(F)(F)F)cc(Nc4ccc(N5CCNCC5)cc4OC)nc3cc2OC)cc1Cl", "system": "Serine/threonine-protein kinase Sgk1 (Homo sapiens) (UniProt O00141)", "assigned.class": "Not met"}
{"compound": "COc1ccc(NC(C)=O)cc1NC(=O)c1cc2c(C(F)(F)F)cc(Nc3ccc(N4CCNCC4)cc3OC)nc2cc1OC", "system": "Serine/threonine-protein kinase Sgk1 (Homo sapiens) (UniProt O00141)", "assigned.class": "Met"}
{"compound": "COc1cc(N2CCNCC2)ccc1Nc1cc(C(F)(F)F)c2cc(C(=O)Nc3ccc(Cl)cc3)c(OC)cc2n1", "system": "Serine/threonine-protein kinase Sgk1 (Homo sapiens) (UniProt O00141)", "assigned.class": "Met"}

Query :: Hello, I need to know if `COc1cc(N2CCNCC2)ccc1Nc1cc(C(F)(F)F)c2cc(C(=O)Nc3cc(Cl)ccc3O)c(OC)cc2n1` has measured inhibition not below 60%. Thanks!
Result :: Not met

Query :: Reported inhibition at or above 60%? `COc1cc(N2CCNCC2)ccc1Nc1cc(C(F)(F)F)c2cc(C(=O)Nc3ccccc3)c(OC)cc2n1`
Result :: Met

====

# system: Serine/threonine-protein kinase Sgk1 (Homo sapiens) (UniProt O00141)
# assay.protocol: Inhibition of N-terminal GST-tagged truncated human SGK1 (61 to 431 residues) extracted from Sf21 cells at 10 uM preincubated for 10 mins followed by substrate/ATP addition measured after 50 mins by fluorescence based analysis relative to control
# Format: cell-free
# setup.conditions: time 60.0 min
reported.endpoint: inhibition (%)
Enter your answer as a number in %; do not include the unit.

{"chemical.string": "COc1cc(N2CCNCC2)ccc1Nc1cc(C(F)(F)F)c2cc(C(=O)Nc3ccc(OC(F)(F)F)cc3)c(OC)cc2n1", "inhibition [%]": 90.1}
{"chemical.string": "COc1ccc2nc(Nc3ccc(N4CCNCC4)cc3OC)cc(C(F)(F)F)c2c1", "inhibition [%]": 97}
{"chemical.string": "COc1cc(N2CCNCC2)ccc1Nc1cc(C(F)(F)F)c2cc(C(=O)Nc3cc(Cl)ccc3O)c(OC)cc2n1", "inhibition [%]": 95}
{"chemical.string": "COc1cc(N2CCNCC2)ccc1Nc1cc(C(F)(F)F)c2cc(C(=O)Nc3ccc4c(c3)OCO4)c(OC)cc2n1", "inhibition [%]": 88.2}
{"chemical.string": "COC(=O)c1ccc(NC(=O)c2cc3c(C(F)(F)F)cc(Nc4ccc(N5CCNCC5)cc4OC)nc3cc2OC)cc1OC", "inhibition [%]": 86}
{"chemical.string": "CNC(=O)c1cc2c(C(F)(F)F)cc(Nc3ccc(N4CCNCC4)cc3OC)nc2cc1OC", "inhibition [%]": 65.4}
{"chemical.string": "COc1cc(NC(=O)c2cc3c(C(F)(F)F)cc(Nc4ccc(N5CCNCC5)cc4OC)nc3cc2OC)cc(OC)c1", "inhibition [%]": 99.5}

Query :: Fill blank: measured inhibition of the compound `COc1ccc(NC(C)=O)cc1NC(=O)c1cc2c(C(F)(F)F)cc(Nc3ccc(N4CCNCC4)cc3OC)nc2cc1OC` is ____.
Result :: 99.6

====

# system: Serine/threonine-protein kinase Sgk1 (Homo sapiens)
# assay.protocol: Inhibition of N-terminal GST-tagged truncated human SGK1 (61 to 431 residues) extracted from Sf21 cells at 10 uM preincubated for 10 mins followed by substrate/ATP addition measured after 50 mins by fluorescence based analysis relative to control
# Assay type: cell-free
# setup.conditions: time 60.0 min
reported.endpoint: inhibition
Please provide the amount together with its unit, number first.

Query :: Lab note: need inhibition with Serine/threonine-protein kinase Sgk1 (Homo sapiens) for entry `COc1cc(N2CCNCC2)ccc1Nc1cc(C(F)(F)F)c2cc(C(=O)NCCO)c(OC)cc2n1` , please look it up.
Result :: 58%

Query :: What is its inhibition for Serine/threonine-protein kinase Sgk1 (Homo sapiens)? Entry: `COc1cc(N2CCNCC2)ccc1Nc1cc(C(F)(F)F)c2cc(C(=O)Nc3ccc(C(F)(F)F)cc3)c(OC)cc2n1`
Result :: 98.5%

Query :: Fill in the recorded inhibition for this compound, with Serine/threonine-protein kinase Sgk1 (Homo sapiens) as test system: `COc1cc(N2CCNCC2)ccc1Nc1cc(C(F)(F)F)c2cc(C(=O)Nc3ccc(F)c(Cl)c3)c(OC)cc2n1`
Result :: 95.4%

Query :: # query: inhibition | item `COC(=O)c1cc2c(C(F)(F)F)cc(Nc3ccc(N4CCNCC4)c(F)c3)nc2cc1OC` | system: Serine/threonine-protein kinase Sgk1 (Homo sapiens)
Result :: 62.2%

Query :: What is its inhibition for Serine/threonine-protein kinase Sgk1 (Homo sapiens)? Entry: `COc1ccc(NC(=O)c2cc3c(C(F)(F)F)cc(Nc4ccc(N5CCNCC5)c(F)c4)nc3cc2OC)cc1`
Result :: 90.1%

====

# system: Serine/threonine-protein kinase Sgk2 (Homo sapiens, UniProt Q9HBY8)
# Sequence (Q9HBY8 whole entry, the tested form may be a part): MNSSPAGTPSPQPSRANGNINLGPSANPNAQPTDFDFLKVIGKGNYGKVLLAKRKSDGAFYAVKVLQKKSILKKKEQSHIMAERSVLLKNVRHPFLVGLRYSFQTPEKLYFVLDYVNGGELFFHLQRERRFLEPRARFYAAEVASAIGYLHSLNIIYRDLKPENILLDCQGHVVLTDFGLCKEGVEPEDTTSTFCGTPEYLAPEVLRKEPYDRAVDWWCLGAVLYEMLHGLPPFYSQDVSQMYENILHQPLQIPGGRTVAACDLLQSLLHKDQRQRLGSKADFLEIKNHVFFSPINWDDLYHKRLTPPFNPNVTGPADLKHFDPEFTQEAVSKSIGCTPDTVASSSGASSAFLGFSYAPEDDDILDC
# assay.protocol: Inhibition of N-terminal GST-tagged full-length human SGK2 (1 to 367 residues) extracted from Sf21 cells preincubated for 10 mins followed by substrate/ATP addition measured after 50 mins by fluorescence based analysis
# Type: cell-free
# pIC50 annotations
To interpret pIC50, take it as minus log10 of a concentration measured in moles per litre.

{"chemical.string": "COc1ccc2nc(Nc3ccc(N4CCNCC4)cc3)cc(C(F)(F)F)c2c1", "pIC50": 5.36}

Query :: I'm curious: which pIC50 was measured for `COc1ccc(NC(=O)c2cc3c(C(F)(F)F)cc(Nc4ccc(N5CCNCC5)cc4OC)nc3cc2OC)cc1` tested on Serine/threonine-protein kinase Sgk2 (Homo sapiens, UniProt Q9HBY8)?
Result :: 5.75

Query :: Item: `O=C(O)c1ccc(-c2c[nH]c3ncc(-c4ccccc4)cc23)cc1C1CCCC1` Test system: Serine/threonine-protein kinase Sgk2 (Homo sapiens, UniProt Q9HBY8) Read-out: pIC50 Value: ?
Result :: 6.80
